- Tested on: CCRF-CEM leukemia
- assay_notes: NCI tumour cell line growth inhibition, 48 h
endpoint_name: TGI (µM)
Numbers only, in µM.

Some solved cases for reference:
| compound | TGI, µM |
| --- | --- |
| CCc1c(Cc2cccc3ccccc23)n2c(nc1=O)SCC2OCCO (stereo not given) | 74 |
| COc1cc(/C=C/C(=O)c2c(=O)o[nH][n+]2-c2ccccc2)ccc1[O-] | 3.52 |

Query compound follows.
Exercise: Tell me reported TGI for `C[C@H](NC(=O)[C@@H]1CSSC[C@@H](NC(=O)c2nc3ccccc3cc2O)C(=O)NCC(=O)N1C)c1ccccc1` , tested with CCRF-CEM leukemia.
Key: 10.5

Data origin, for the record: PubChem BioAssay (NCI)
